Study System: GABA-A receptor; alpha-5/beta-3/gamma-2 (Homo sapiens) (UniProt P18507+P28472+P31644)
Assay Notes: Negative allosteric modulation activity at human recombinant alpha5beta3gamma2 GABAA receptor stably expressed in HEK293 cells assessed as modulation at alpha5 subunit at 1 uM by Patch clamp method
Type: cell-based
Measurement Conditions: filed as negative allosteric modulator
Decision: Activity >= -20% yields Met, all other cases yield Not met.

Examples from the recorded data:
CC(=O)N1CCc2nc(OCc3c(-c4ccc(F)cc4)noc3C)ccc2C1 Met
Cc1onc(-c2ccc(F)cc2)c1COc1ccc2c(c1)CCNC2=O Met
Cc1onc(-c2ccc(F)cc2)c1COc1ccc2c(n1)CCN(C(=O)C1CC1)C2 Met
Cc1onc(-c2ccc(F)cc2)c1COc1ccc2c(n1)CCN(C(=O)N(C)C)C2 Not met
Cc1onc(-c2ccc(F)cc2)c1COc1ccc2c(c1)CCC(=O)N2C Met

Ask | Assess whether reported Activity for "Cc1onc(-c2ccc(F)cc2)c1COc1ccc2c(n1)CCN(C(=O)C1CCS(=O)(=O)CC1)C2" sits at -20% or higher.
Reply | Not met

Ask | Given the entry "Cc1onc(-c2ccc(F)cc2)c1COc1ccc2c(n1)CCN(C(=O)CCS(C)(=O)=O)C2" , answer whether its Activity meets or surpasses -20%.
Reply | Met

Ask | Please check the record "Cc1nnn(-c2ccc(F)cc2)c1COc1ccc2c(n1)CCN(CCS(C)(=O)=O)C2=O" and state if its Activity is at or above -20%.
Reply | Not met

###

Assay Notes: Metabolic stability in Wistar rat liver microsomes assessed as intrinsic clearance at 2.5 uM
Type: ADME, Microsome
Measurement Conditions: read-out: CLH
Please provide measured microsomal CLint at 2.5 µM for the entries that follow.
Answers are plain numbers, in µL/min/mg.

Known microsomal CLint at 2.5 µM results, listed for orientation:
Compound	microsomal CLint at 2.5 µM, µL/min/mg
Cc1nnn(-c2ccc(F)cc2)c1COc1ccc2c(n1)CCN(C(=O)NC1CC(=O)N(C)C1)C2 (stereo not drawn)	11
Cc1nnn(-c2ccc(F)cc2)c1COc1ccc2c(n1)CCN(C(=O)C1CC1)C2	99

# context switch: different compound, same microsomal CLint at 2.5 µM
Ask | Name the reported microsomal CLint at 2.5 µM value associated with the compound Cc1onc(-c2ccc(F)cc2)c1COc1ccc(C(=O)N2CCS(=O)(=O)CC2)cn1 [BASMISANIL]
Reply | 22

###

Assignment: determine reported Ki for the given compounds.
Study System: GABA-A receptor; alpha-5/beta-3/gamma-2 (Homo sapiens, UniProt P18507+P28472+P31644)
Sequence (P18507 whole entry): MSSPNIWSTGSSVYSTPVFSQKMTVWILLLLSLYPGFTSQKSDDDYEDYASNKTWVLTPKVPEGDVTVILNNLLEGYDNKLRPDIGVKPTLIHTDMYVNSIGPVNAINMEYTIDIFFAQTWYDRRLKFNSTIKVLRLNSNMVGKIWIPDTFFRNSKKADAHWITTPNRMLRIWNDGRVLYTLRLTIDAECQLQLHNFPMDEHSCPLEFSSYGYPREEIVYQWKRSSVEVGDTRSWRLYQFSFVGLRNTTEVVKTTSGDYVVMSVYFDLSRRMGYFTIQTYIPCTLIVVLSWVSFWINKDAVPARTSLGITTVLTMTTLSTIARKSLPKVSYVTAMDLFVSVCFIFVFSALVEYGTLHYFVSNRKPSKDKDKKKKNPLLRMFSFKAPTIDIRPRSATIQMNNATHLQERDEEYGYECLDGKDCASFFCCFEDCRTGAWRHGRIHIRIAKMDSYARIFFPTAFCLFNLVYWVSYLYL
Sequence (P28472 whole entry): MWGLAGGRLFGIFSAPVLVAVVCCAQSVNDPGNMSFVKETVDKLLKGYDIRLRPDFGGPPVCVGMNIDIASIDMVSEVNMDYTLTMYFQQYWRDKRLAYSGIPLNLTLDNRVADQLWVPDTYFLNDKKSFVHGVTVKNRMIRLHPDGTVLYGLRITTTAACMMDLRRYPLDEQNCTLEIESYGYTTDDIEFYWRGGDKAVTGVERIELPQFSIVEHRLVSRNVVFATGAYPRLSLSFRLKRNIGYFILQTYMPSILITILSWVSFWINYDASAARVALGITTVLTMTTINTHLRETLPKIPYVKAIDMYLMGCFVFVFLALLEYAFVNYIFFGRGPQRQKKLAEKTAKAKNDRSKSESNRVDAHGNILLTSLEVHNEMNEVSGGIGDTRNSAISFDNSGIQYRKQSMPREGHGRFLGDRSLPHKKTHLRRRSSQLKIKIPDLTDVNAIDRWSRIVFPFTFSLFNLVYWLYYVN
Sequence (P31644 whole entry): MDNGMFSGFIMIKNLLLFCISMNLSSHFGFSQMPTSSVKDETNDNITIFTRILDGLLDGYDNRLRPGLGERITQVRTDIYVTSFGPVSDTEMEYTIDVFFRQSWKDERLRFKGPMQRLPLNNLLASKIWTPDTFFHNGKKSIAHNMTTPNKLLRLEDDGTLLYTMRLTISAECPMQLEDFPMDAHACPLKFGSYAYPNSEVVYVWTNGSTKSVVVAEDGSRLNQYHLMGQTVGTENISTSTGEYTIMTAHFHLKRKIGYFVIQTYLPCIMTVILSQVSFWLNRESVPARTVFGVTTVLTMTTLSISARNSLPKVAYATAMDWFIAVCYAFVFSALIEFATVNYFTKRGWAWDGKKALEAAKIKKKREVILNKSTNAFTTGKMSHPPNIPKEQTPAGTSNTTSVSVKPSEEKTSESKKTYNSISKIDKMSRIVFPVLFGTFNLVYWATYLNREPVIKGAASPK
Assay Notes: Displacement of [3H]Ro151788 from human recombinant alpha5beta3gamma2 GABAA receptor stably expressed in HEK293 cell membrane assessed as inhibition constant by radioligand binding assay
Numbers only, in µM.

Compound	Ki (µM)
Cc1onc(-c2ccc(F)cc2)c1COc1ccc2c(n1)CCN(C(=O)N1CCCCC1)C2	0.049

Batch lookup, Ki per entry.
1. Cc1nnn(-c2ccc(F)cc2)c1COc1ccc2c(n1)CCN(C(=O)NC1CC(=O)N(C)C1)C2 (centres undefined)
2. Cc1onc(-c2ccc(F)cc2)c1COc1cc2c(cn1)C(=O)NCC2

Reply |
1. 0.038
2. 0.00049

###

Study System: GABA-A receptor; alpha-5/beta-3/gamma-2 (Homo sapiens, UniProt P18507+P28472+P31644)
Assay Notes: Displacement of [3H]Ro151788 from human recombinant alpha5beta3gamma2 GABAA receptor stably expressed in HEK293 cell membrane assessed as inhibition constant by radioligand binding assay
Provide the reported Ki of each item.
Give bare numbers, in nM.

Molecule	Reading
Cc1onc(-c2ccc(F)cc2)c1COc1ccc2c(n1)CCN(C(=O)CCS(C)(=O)=O)C2	30
Cc1onc(-c2ccc(F)cc2)c1COc1ccc2c(c1)OCC(=O)N2C	14
Cc1nnn(-c2ccc(F)cc2)c1COc1ccc2c(n1)CCN(C(=O)C1CCCO1)C2 (stereo unspecified)	39
Cc1nnn(-c2ccc(F)cc2)c1COc1ccc2c(n1)CCN(C(=O)C1CCOC1)C2 (stereo unspecified)	42
Cc1nnn(-c2ccc(F)cc2)c1COc1ccc2c(n1)CCN(CCS(C)(=O)=O)C2=O	55

// each molecule listed below needs its Ki
1. Cc1onc(-c2ccc(F)cc2)c1COc1ccc2c(c1)CCC(=O)N2C
2. Cc1onc(-c2ccc(F)cc2)c1COc1ccc2c(n1)CCN(C(C)C)C2=O
3. CCC(=O)N1CCc2nc(OCc3c(C)nnn3-c3ccc(F)cc3)ccc2C1
4. CC(=O)N1CCc2nc(OCc3c(-c4ccc(F)cc4)noc3C)ccc2C1
5. Cc1onc(-c2ccc(F)cc2)c1COc1ccc2c(n1)CCN(C(=O)C1CCOC1)C2 (stereo unspecified)
6. Cc1onc(-c2ccc(F)cc2)c1COc1ccc2c(n1)CCN(CC1CCCS1(=O)=O)C2=O (stereo unspecified)
7. Cc1onc(-c2ccc(F)cc2)c1COc1ccc(C(=O)N2CCS(=O)(=O)CC2)cn1

Reply |
[13, 13, 46, 1.9, 7, 23, 4.4]

# batch size: 2; output Ki per entry
1. CC(=O)N1CCc2nc(OCc3c(C)nnn3-c3ccc(F)cc3)ccc2C1
2. Cc1nnn(-c2ccc(F)cc2)c1COc1ccc2c(n1)CCN(C(=O)NC1CCOC1)C2 (stereo unspecified)

Reply |
1: 28; 2: 28

Field: Ki. Fill in for each record below.
1. Cc1onc(-c2ccc(F)cc2)c1COc1ccc2c(n1)CCN(Cc1ccno1)C2=O
2. Cc1onc(-c2ccc(F)cc2)c1COc1ccc2c(n1)CCNC2=O

Reply |
9
4.1
